- System: aconitine-induced arrhythmias
- Assay Procedure: Anti-arrhythmic action (aconitine-induced arrhythmias in mice)
- Format: in vivo, male ddY mice
- Experimental Setup: 100 mg/kg orally 60 min prior to aconitine infusion, percent increase of aconitine needed to induce arrhythmias
- Experimental: 2. Anti-arrhythmic action (aconitine-induced arrhythmias in mice) Male ddY mice weighing about 30 g were anesthetized with pentobarbital sodium given intraperitoneally. Aconitine (1.32 μg/min) was continuously infused into a tail vein 15 min posterior to pentobarbital sodium administration. […] The amount of aconitine needed to induce arrhythmias was calculated from the time taken to the onset of the first premature ventricular systoles. […]
Measurement Kind: Anti-arrhythmic action, relative potency (quinidine = 1)
A bare number is all that is needed in reply.

Using the record for COc1cc(C(C#N)(CCCNCCCOc2ccc(N)cc2)C(C)C)cc(OC)c1OC (stereo not drawn) [Example 126] , state its measured Anti-arrhythmic action, relative potency (quinidine = 1).
1.03

----------
Examples of compounds with documented Anti-arrhythmic action, relative potency (quinidine = 1) follow.
- Tested on: aconitine-induced arrhythmias
- Assay Procedure: Anti-arrhythmic action (aconitine-induced arrhythmias in mice)
- Type: in vivo, male ddY mice
- Experimental Setup: 100 mg/kg orally 60 min prior to aconitine infusion, percent increase of aconitine needed to induce arrhythmias

Below: 3 compounds and their reported Anti-arrhythmic action, relative potency (quinidine = 1).
CC(C)N(CCC(C(N)=O)(c1ccccc1)c1ccccn1)C(C)C (stereo not shown) [disopyramide, reference compound] = 0.97
COc1ccccc1OCCCNCCC(C#N)(c1cc(OC)c(OC)c(OC)c1)C(C)C.Cl (stereo not shown) = 2.02
COc1ccccc1OCCN(C)CCCC(C#N)(c1cc(OC)c(OC)c(OC)c1)C(C)C (stereo not shown) = 3.72

Shift focus to the following entry.
Report Anti-arrhythmic action, relative potency (quinidine = 1) on aconitine-induced arrhythmias for this entry: COc1ccc(C(C#N)(CCCN(C)CCCOc2ccccc2OC)C(C)C)cc1OC (stereo not shown)
1.64

----------
- System: aconitine-induced arrhythmias
- Assay Procedure: Anti-arrhythmic action (aconitine-induced arrhythmias in mice)
- Assay type: in vivo, male ddY mice
- Experimental Setup: 100 mg/kg orally 60 min prior to aconitine infusion, percent increase of aconitine needed to induce arrhythmias
Measurement Kind: Anti-arrhythmic action, relative potency (quinidine = 1)

COc1ccccc1OCCNCCCC(C#N)(c1cc(OC)c(OC)c(OC)c1)C(C)C (centres unmarked) [Example 84] = 2.52

Give Anti-arrhythmic action, relative potency (quinidine = 1) for the following compound: COc1ccccc1OCCCN(C)CCCC(C#N)(c1cc(OC)c(OC)c(OC)c1)C(C)C (centres unmarked) [Example 119]
2.24

Please report the measured Anti-arrhythmic action, relative potency (quinidine = 1) for COc1cc(C(C#N)(CCCNCCCOc2cccc(N)c2)C(C)C)cc(OC)c1OC (centres unmarked) [Example 128]
2.01

Give recorded Anti-arrhythmic action, relative potency (quinidine = 1). COc1cc(C(C#N)(CCCNCCCOc2ccccc2N)C(C)C)cc(OC)c1OC (centres unmarked) [Example 11]
1.51

For the compound COc1ccc(C(C#N)(CCCNCCCOc2ccccc2OC)C(C)C)cc1OC (centres unmarked) [Example 57] , give its reported Anti-arrhythmic action, relative potency (quinidine = 1).
1.52

----------
Reported values of Anti-arrhythmic action, relative potency (quinidine = 1) for individual entries
- Test system: aconitine-induced arrhythmias
- Assay Procedure: Anti-arrhythmic action (aconitine-induced arrhythmias in mice)
- Format: in vivo, male ddY mice
- Experimental Setup: 100 mg/kg orally 60 min prior to aconitine infusion, percent increase of aconitine needed to induce arrhythmias
// no unit, no text: just the number

Would you please look over these solved cases?
COc1ccccc1OCCCNCCCC(C#N)(c1cc(OC)c(OC)c(OC)c1)C(C)C (centres unmarked) = 2.65
COc1ccc(CCN(C)CCCC(C#N)(c2cc(OC)c(OC)c(OC)c2)C(C)C)cc1OC (centres unmarked) [Gallopamil, reference compound] = 0.30
COc1cc(C(C#N)(CCCNCCOc2ccccc2)C(C)C)cc(OC)c1OC.Cl (centres unmarked) = 2.01
COc1cccc(C(C#N)(CCCNCCOc2ccccc2OC)C(C)C)c1 (centres unmarked) = 2.28

Here is the next item to consider.
Tell us which Anti-arrhythmic action, relative potency (quinidine = 1) value is on record for COc1cccc(C(C#N)(CCCN(C)CCOc2ccccc2OC)C(C)C)c1 (centres unmarked)
1.20

----------
Recorded Anti-arrhythmic action, relative potency (quinidine = 1) for the following molecules
- Test system: aconitine-induced arrhythmias
- Assay Procedure: Anti-arrhythmic action (aconitine-induced arrhythmias in mice)
- Assay type: in vivo, male ddY mice
- Experimental Setup: 100 mg/kg orally 60 min prior to aconitine infusion, percent increase of aconitine needed to induce arrhythmias

The following molecules have reported results that may help.
COc1cccc(C(C#N)(CCCNCCCOc2ccccc2OC)C(C)C)c1 (centres unmarked) = 2.34
CCCc1ccccc1OCCCNCCCC(C#N)(c1cc(OC)c(OC)c(OC)c1)C(C)C (centres unmarked) = 1.21
COc1cccc(C(C#N)(CCCN(C)CCCOc2ccccc2OC)C(C)C)c1 (centres unmarked) = 1.60
COc1ccccc1OCCNCCCC(C)(C#N)c1cc(OC)c(OC)c(OC)c1 (centres unmarked) = 1.34

Then this molecule:
Param request: Anti-arrhythmic action, relative potency (quinidine = 1) | system aconitine-induced arrhythmias | item COc1ccc(C(C#N)(CCCNCCCOc2ccccc2OC)C(C)C)cc1 (centres unmarked)
1.43
